tested system: human thrombin (HT) (Homo sapiens (human), UniProt P00734;P00734 328-363;364-622)
protocol summary: nanopore single-molecule titration
experimental endpoint: Kd
Form field: result (number plus unit)

Exercise: Name the reported Kd value associated with the binder GGTTGGTGTGGTTGG (structured_DNA) [TBA]
Key: 8 nM
